// provenance: ChEMBL document CHEMBL4330117

test system: HepG2; assay: Antiproliferative activity against human HepG2 cells after 24 hrs by MTT assay; type: functional, cell-based; conditions: HepG2, 24 h
endpoint.name: IC50 (nM)

1. Cc1ccc(-c2nn(-c3ccccc3)cc2-c2nc3ccccc3n2S(=O)(=O)c2ccc(C(F)(F)F)cc2)cc1
2. O=[N+]([O-])c1ccc(S(=O)(=O)n2c(-c3cn(-c4ccccc4)nc3-c3ccc(F)cc3)nc3ccccc32)cc1
3. COc1ccc(S(=O)(=O)n2c(-c3cn(-c4ccccc4)nc3-c3ccc(C(F)(F)F)cc3)nc3ccccc32)cc1
Query: Descending by IC50 please, for everything listed above. Please respond by ranking the labels in the order requested.
Result: 1, 2, 3
(1: 1930 nM, 2: 1340 nM, 3: 370 nM)

* * *

target: Tubulin (Bos taurus) (UniProt Q6B856+Q862L2+Q862F3); assay: Inhibition of vinblastine binding to bovine brain tubulin at 5 uM
endpoint.name: inhibition (%)

smiles: Cc1ccc(C)c(S(=O)(=O)n2c(-c3cn(-c4ccccc4)nc3-c3ccc(C(F)(F)F)cc3)nc3ccccc32)c1
inhibition (%): 0.06

1. Cc1ccc(-c2nn(-c3ccccc3)cc2-c2nc3ccccc3n2S(=O)(=O)c2ccc(Cl)cc2)cc1
2. O=S(=O)(c1ccc(Cl)cc1)n1c(-c2cn(-c3ccccc3)nc2-c2ccc(C(F)(F)F)cc2)nc2ccccc21
Query: // pick larger inhibition from pair: 1 vs 2 Indicate your choice by writing its label.
Result: 2

* * *

Listed here: items and their measured CC50 at 24 h.
experiment: Cytotoxicity against HEK293T cells after 24 hrs by MTT assay; assay type: cell-based, HEK-293T; settings: human
Write the answer as a number in µM, unit excluded.

smiles: O=S(=O)(c1ccccc1)n1c(-c2cn(-c3ccccc3)nc2-c2ccc(C(F)(F)F)cc2)nc2ccccc21
CC50 at 24 h, µM: 128

smiles: COc1ccc(S(=O)(=O)n2c(-c3cn(-c4ccccc4)nc3-c3ccc(F)cc3)nc3ccccc32)cc1
CC50 at 24 h, µM: 37.3

smiles: O=S(=O)(c1ccc(F)cc1)n1c(-c2cn(-c3ccccc3)nc2-c2ccc(C(F)(F)F)cc2)nc2ccccc21
CC50 at 24 h, µM: 157

smiles: Cc1ccc(-c2nn(-c3ccccc3)cc2-c2nc3ccccc3n2S(=O)(=O)c2ccc(Br)cc2)cc1
CC50 at 24 h, µM: 159

smiles: Cc1ccc(-c2nn(-c3ccccc3)cc2-c2nc3ccccc3n2S(=O)(=O)c2ccc(C)cc2)cc1
CC50 at 24 h, µM: 79.3

smiles: O=S(=O)(c1ccc(C(F)(F)F)cc1)n1c(-c2cn(-c3ccccc3)nc2-c2ccc(C(F)(F)F)cc2)nc2ccccc21
CC50 at 24 h, µM: 63.2

Please look at the following compound next.
Query: Please report the recorded CC50 at 24 h for `O=S(=O)(c1ccc(Br)cc1)n1c(-c2cn(-c3ccccc3)nc2-c2ccc(F)cc2)nc2ccccc21` .
Result: 239

* * *

system: HepG2; assay: Antiproliferative activity against human HepG2 cells after 24 hrs by MTT assay; format: functional, cell-based; conditions: HepG2, 24 h
endpoint.name: IC50 (nM)

These recorded examples may help you get a feel for the data.
smiles: COc1ccc(S(=O)(=O)n2c(-c3cn(-c4ccccc4)nc3-c3ccc(F)cc3)nc3ccccc32)cc1
assayed.system: HepG2
readout.unit: nM
value.reported: 470
--
smiles: O=[N+]([O-])c1ccc(S(=O)(=O)n2c(-c3cn(-c4ccccc4)nc3-c3ccc(C(F)(F)F)cc3)nc3ccccc32)cc1
assayed.system: HepG2
readout.unit: nM
value.reported: 1070

A. O=S(=O)(c1ccc(C(F)(F)F)cc1)n1c(-c2cn(-c3ccccc3)nc2-c2ccc(F)cc2)nc2ccccc21
B. Cc1ccc(-c2nn(-c3ccccc3)cc2-c2nc3ccccc3n2S(=O)(=O)c2ccccc2)cc1
Query: Which of these two has the smaller recorded IC50: A or B ? Indicate your choice by writing its label.
Result: B
(B: 960 nM, A: 1680 nM)

A. Cc1ccc(-c2nn(-c3ccccc3)cc2-c2nc3ccccc3n2S(=O)(=O)c2ccc(Br)cc2)cc1
B. O=S(=O)(c1ccc(C(F)(F)F)cc1)n1c(-c2cn(-c3ccccc3)nc2-c2ccc(C(F)(F)F)cc2)nc2ccccc21
Query: // pick larger IC50 from pair: A vs B Indicate your choice by writing its label.
Result: A
(A: 3040 nM, B: 1120 nM)

* * *

test system: HepG2; assay: Antiproliferative activity against human HepG2 cells after 24 hrs by MTT assay; type: functional, cell-based; conditions: HepG2, 24 h
endpoint.name: IC50 (µM)

These recorded examples may help you get a feel for the data.
compound: COc1cc2c(c(OC)c1OC)-c1ccc(OC)c(=O)cc1[C@@H](NC(C)=O)CC2 [COLCHICINE]
assayed.system: HepG2
readout.unit: µM
IC50: 0.42

compound: COc1ccc(/C=C\c2cc(OC)c(OC)c(OC)c2)cc1O [COMBRETASTATIN A4]
assayed.system: HepG2
readout.unit: µM
IC50: 0.33

compound: FC(F)(F)c1ccc(-c2nn(-c3ccccc3)cc2-c2nc3ccccc3[nH]2)cc1
assayed.system: HepG2
readout.unit: µM
IC50: 6.03

compound: Cc1ccc(-c2nn(-c3ccccc3)cc2-c2nc3ccccc3n2S(=O)(=O)c2ccc(F)cc2)cc1
assayed.system: HepG2
readout.unit: µM
IC50: 5.06

I. O=S(=O)(c1ccc(Br)cc1)n1c(-c2cn(-c3ccccc3)nc2-c2ccc(F)cc2)nc2ccccc21
II. Cc1ccc(-c2nn(-c3ccccc3)cc2-c2nc3ccccc3n2S(=O)(=O)c2ccc(C)cc2)cc1
Query: // pick larger IC50 from pair: I vs II Indicate your choice by writing its label.
Result: I
(I: 2.55 µM, II: 0.52 µM)

I. O=S(=O)(c1ccc(Cl)cc1)n1c(-c2cn(-c3ccccc3)nc2-c2ccc(C(F)(F)F)cc2)nc2ccccc21
II. O=S(=O)(c1ccccc1)n1c(-c2cn(-c3ccccc3)nc2-c2ccc(C(F)(F)F)cc2)nc2ccccc21
Query: Which of these two has the smaller recorded IC50: I or II ? Indicate your choice by writing its label.
Result: II

* * *

assay: Cytotoxicity against HEK293T cells after 24 hrs by MTT assay; format: cell-based, HEK-293T; conditions: human
Listed here: items and their measured CC50 at 24 h.
Write the answer as a number in µM, unit excluded.

These recorded examples may help you get a feel for the data.
smiles: Cc1ccc(-c2nn(-c3ccccc3)cc2-c2nc3ccccc3n2S(=O)(=O)c2ccc(C(F)(F)F)cc2)cc1
CC50 at 24 h / µM: 182
--
smiles: Cc1ccc(-c2nn(-c3ccccc3)cc2-c2nc3ccccc3[nH]2)cc1
CC50 at 24 h / µM: 187
--
smiles: Cc1ccc(-c2nn(-c3ccccc3)cc2-c2nc3ccccc3n2S(=O)(=O)c2ccc(F)cc2)cc1
CC50 at 24 h / µM: 128
--
smiles: Cc1ccc(-c2nn(-c3ccccc3)cc2-c2nc3ccccc3n2S(=O)(=O)c2ccccc2)cc1
CC50 at 24 h / µM: 138
--
smiles: O=S(=O)(c1ccc(F)cc1)n1c(-c2cn(-c3ccccc3)nc2-c2ccc(F)cc2)nc2ccccc21
CC50 at 24 h / µM: 218
--
smiles: O=[N+]([O-])c1ccc(S(=O)(=O)n2c(-c3cn(-c4ccccc4)nc3-c3ccc(C(F)(F)F)cc3)nc3ccccc32)cc1
CC50 at 24 h / µM: 163
--
smiles: Cc1ccc(-c2nn(-c3ccccc3)cc2-c2nc3ccccc3n2S(=O)(=O)c2ccc(Cl)cc2)cc1
CC50 at 24 h / µM: 167

Query: Please report the recorded CC50 at 24 h for `O=S(=O)(c1ccc(Cl)cc1)n1c(-c2cn(-c3ccccc3)nc2-c2ccc(C(F)(F)F)cc2)nc2ccccc21` .
Result: 75.3

* * *

biological target: Tubulin (Bos taurus) (UniProt Q6B856+Q862L2+Q862F3); assay: Inhibition of [3H]colchicine binding to bovine brain tubulin at 5 uM
endpoint.name: inhibition (%)

smiles: Cc1ccc(-c2nn(-c3ccccc3)cc2-c2nc3ccccc3n2S(=O)(=O)c2ccc(Cl)cc2)cc1
readout.unit: %
inhibition: 38
//
smiles: O=S(=O)(c1ccc(C(F)(F)F)cc1)n1c(-c2cn(-c3ccccc3)nc2-c2ccc(C(F)(F)F)cc2)nc2ccccc21
readout.unit: %
inhibition: 54

1. COc1ccc(S(=O)(=O)n2c(-c3cn(-c4ccccc4)nc3-c3ccc(F)cc3)nc3ccccc32)cc1
2. O=S(=O)(c1ccc(F)cc1)n1c(-c2cn(-c3ccccc3)nc2-c2ccc(F)cc2)nc2ccccc21
Query: // pick larger inhibition from pair: 1 vs 2 Indicate your choice by writing its label.
Result: 1

* * *

experiment: Cytotoxicity against HEK293T cells after 24 hrs by MTT assay; format: cell-based, HEK-293T; conditions: human
Listed here: items and their measured CC50 at 24 h.
Write the answer as a number in µM, unit excluded.

smiles: Cc1ccc(C)c(S(=O)(=O)n2c(-c3cn(-c4ccccc4)nc3-c3ccc(C(F)(F)F)cc3)nc3ccccc32)c1
readout.unit: µM
CC50 at 24 h: 223

Query: Please report the recorded CC50 at 24 h for `O=S(=O)(c1ccc(C(F)(F)F)cc1)n1c(-c2cn(-c3ccccc3)nc2-c2ccc(F)cc2)nc2ccccc21` .
Result: 241

Query: Please report the recorded CC50 at 24 h for `Cc1ccc(C)c(S(=O)(=O)n2c(-c3cn(-c4ccccc4)nc3-c3ccc(F)cc3)nc3ccccc32)c1` .
Result: 54.2
